tested on: pathogenic bacteria; test: MIC by microdilution broth method (NCCLS M7-A4), in vitro antibacterial activity; format: cell-based; settings: Staphylococcus aureus, Organism A: Staphylococcus aureus OC4172; read-out: MIC
reportedEndpoint: log10 MIC (log10 of the value in µg/mL)
Record value = log10 of MIC given in µg/mL.

Memo: C[C@H]1COc2c(N3CCC/C(=C(\F)CN)CC3)c(F)cc3c(=O)c(C(=O)O)cn1c23 [Compound 492] , reported log10 MIC: -1.22

====

test system: pathogenic bacteria; assay: MIC by microdilution broth method (NCCLS M7-A4), in vitro antibacterial activity; assay type: cell-based; conditions: Streptococcus pneumoniae, Organism C: fluoroquinolone-resistant clinical isolate of Streptococcus pneumoniae (QRDR amino acid substitutions)
Here the recorded MIC is given for each entry.
Respond numerically; units are µg/mL and should not be typed.

NCC(Cl)=C1CCN(c2cc3c(cc2F)c(=O)c(C(=O)O)cn3C2CC2)CC1 0.5
CCNCC(Cl)=C1CCN(c2c(F)cc3c(=O)c(C(=O)O)cn(C4CC4)c3c2OC)CC1 1

Now examine the next entry.
Memo: `CC(C)NCC(Cl)=C1CCN(c2nc3c(cc2F)c(=O)c(C(=O)O)cn3C2CC2)CC1` , reported MIC: 4

====

Tested on: pathogenic bacteria
Experiment: MIC by microdilution broth method (NCCLS M7-A4), in vitro antibacterial activity
Type: cell-based
Conditions: Streptococcus pneumoniae, Organism C: fluoroquinolone-resistant clinical isolate of Streptococcus pneumoniae (QRDR amino acid substitutions)
Description: Minimal inhibitory concentration (MIC) has been an indicator of in vitro antibacterial activity widely used in the art. The in vitro antimicrobial activity of the compounds was determined by the microdilution broth method following the test method from the National Committee for Clinical Laboratory Standards (NCCLS). […] Following inoculation of the microdilution trays, the trays are incubated at 35° C. for 16-20 hours and then read. […]
Counter-ions that a name gives are not always drawn.
Here the recorded MIC is given for each entry.
Respond numerically; units are µg/mL and should not be typed.

Field: example entries. Status: answers known.
compound	scaleUnit	MIC
NCC(Cl)=C1CCN(c2c(F)cc3c(=O)c(C(=O)O)cn(-c4nc(N)c(F)cc4F)c3c2Cl)CC1	µg/mL	4
C/C(CN)=C1\CCCN(c2cc3c(cc2F)c(=O)c(C(=O)O)cn3C2CC2)C1	µg/mL	8
CC(CO)=C1CCN(c2c(F)cc3c(=O)c(C(=O)O)cn4c3c2OCC4C)CC1 (stereo not drawn)	µg/mL	4

Memo: `NCC(F)=C1CN(c2cc3c(cc2F)c(=O)c(C(=O)O)cn3C2CC2)C1` , reported MIC: 0.5

Memo: NCC(F)=C1CCN(c2cc3c(cc2F)c(=O)c(C(=O)O)cn3C2CC2)CC1 [Compound 5, trifluoroacetic acid salt] , reported MIC: 1

Memo: `Cc1c(F)c(N2CCC/C(=C(/F)CN)C2)cc2c1c(=O)c(C(=O)O)cn2C1CC1` , reported MIC: 16

Memo: `O=C(O)c1cn(C2CC2)c2nc(N3CCC(=CCO)CC3)c(F)cc2c1=O` , reported MIC: 4

Memo: `C[C@H]1COc2c(N3CCC/C(=C(\Cl)CN)CC3)c(F)cc3c(=O)c(C(=O)O)cn1c23` , reported MIC: 2

Memo: `COc1c(N2CC(=C(F)CN)C2)ccc2c(=O)c(C(=O)O)cn(C3CC3)c12` , reported MIC: 1

Memo: `COc1c(N2CCC/C(=C(\C)CN)C2)c(F)cc2c(=O)c(C(=O)O)cn([C@@H]3C[C@@H]3F)c12` , reported MIC: 0.5

Memo: `NCC(F)=C1CN(c2c(F)cc3c(=O)c(C(=O)O)cn(C4CC4)c3c2OC(F)F)C1` , reported MIC: 2

Memo: `NC/C(F)=C1/CCCN(c2nc3c(cc2F)c(=O)c(C(=O)O)cn3C2CC2)CC1` , reported MIC: 0.25
